target: CDK2/cyclin A complex (UniProt P24941 1-298; P20248 1-432); assay: cell-based or functional assay
experimental-readout: Relative activity, CDK2/cyclin A kinase inhibition (pRb substrate)

[ask] # query: Relative activity, CDK2/cyclin A kinase inhibition (pRb substrate) of entry XAKRRLIF (Thi (2-thienylalanine) at position 1; C-terminal amide) [H-Thi-Ala-Lys-Arg-Arg-Leu-Ile Phe-NH2]
[reply] 2 relative to HAKRRLIF-NH2

[ask] Would you kindly repeat that for XAKRRLIF (Hse (homoserine) at position 1; C-terminal amide) [H-Hse-Ala-Lys-Arg-Arg-Leu-Ile Phe-NH2] ?
[reply] 2 relative to HAKRRLIF-NH2

[ask] Would you kindly repeat that for XAKRRLIF (Pya (3-pyridylalanine) at position 1; C-terminal amide) [H-Pya-Ala-Lys-Arg-Arg-Leu-Ile Phe-NH2] ?
[reply] < 0.1 relative to HAKRRLIF-NH2

[ask] Would you kindly repeat that for H-AAKRRLIF-NH2 [H-Ala-Ala-Lys-Arg-Arg-Leu-Ile Phe-NH2] ?
[reply] 1.8 relative to HAKRRLIF-NH2

[ask] Would you kindly repeat that for H-FAKRRLIF-NH2 [H-Phe-Ala-Lys-Arg-Arg-Leu-Ile Phe-NH2] ?
[reply] 3 relative to HAKRRLIF-NH2

[ask] Would you kindly repeat that for XAKRRLIF (Dab (diaminobutyric acid) at position 1; C-terminal amide) [H-Dab-Ala-Lys-Arg-Arg-Leu-Ile Phe-NH2] ?
[reply] 5 relative to HAKRRLIF-NH2
